Sourced from ChEMBL document CHEMBL5303573

experiment: The drug is tested on Eubacterium ventriosum strain: ATCC27560 for biotransformation. The drug concentrations were measured before and after a 12-h incubation by liquid-chromatography-coupled mass spectrometry (LC–MS); type: ADME; design: dose 2 uM, timepoint 0 vs 12 hours; settings: 2 µM

- molecule: "N[C@@H](Cc1ccc(N(CCCl)CCCl)cc1)C(=O)O"
  Bacterial Biotransformation: "Compound metabolized"
- molecule: "COc1ccc2[nH]c([S+]([O-])Cc3ncc(C)c(OC)c3C)nc2c1 (stereo not drawn)"
  Bacterial Biotransformation: "Compound metabolized"

---

assay: The drug is tested on Clostridium hathewayi strain: DSM13479 for biotransformation. The drug concentrations were measured before and after a 12-h incubation by liquid-chromatography-coupled mass spectrometry (LC–MS); details: hungatella hathewayi, 2 µM
outcome.measure: Bacterial Biotransformation

- structure.smiles: "CNCC[C@H](Oc1cccc2ccccc12)c1cccs1"
  experimental.result: "Compound NOT metabolized"
- structure.smiles: "COC1=CC(=O)C[C@@H](C)[C@]12Oc1c(Cl)c(OC)cc(OC)c1C2=O"
  experimental.result: "Compound NOT metabolized"
- structure.smiles: "COC(=O)Nc1nc2ccc(C(=O)c3ccccc3)cc2[nH]1"
  experimental.result: "Compound NOT metabolized"

---

conditions: parabacteroides distasonis, 12 h, 2 µM
Description: The drug is tested on Parabacteroides distasonis strain: ATCC8503 for biotransformation. The drug concentrations were measured before and after a 12-h incubation by liquid-chromatography-coupled mass spectrometry (LC–MS)

- compound: "COc1ccc2[nH]c([S+]([O-])Cc3ncc(C)c(OC)c3C)nc2c1 (stereo not given)"
  Bacterial Biotransformation: "Compound metabolized"
- compound: "CC#C[C@]1(O)CC[C@H]2[C@@H]3CCC4=CC(=O)CCC4=C3[C@@H](c3ccc(N(C)C)cc3)C[C@@]21C"
  Bacterial Biotransformation: "Compound NOT metabolized"
- compound: "COCCc1ccc(OCC(O)CNC(C)C)cc1.COCCc1ccc(OCC(O)CNC(C)C)cc1.O=C(O)C(O)C(O)C(=O)O (stereo not given) [METOPROLOL TARTRATE]"
  Bacterial Biotransformation: "Compound NOT metabolized"
- compound: "CCc1cccc2c3c([nH]c12)C(CC)(CC(=O)O)OCC3 (stereo not given)"
  Bacterial Biotransformation: "Compound NOT metabolized"
- compound: "C[C@@H]1CC[C@H]2[C@@H](C)C(=O)O[C@@H]3O[C@@]4(C)CC[C@@H]1[C@]32OO4"
  Bacterial Biotransformation: "Compound metabolized"
- compound: "CN1CCC(=C2c3ccccc3CCc3cccnc32)CC1.O=C(O)/C=C\\C(=O)O.O=C(O)/C=C\\C(=O)O [AZATADINE MALEATE]"
  Bacterial Biotransformation: "Compound NOT metabolized"
- compound: "CNC(=C[N+](=O)[O-])NCCSCc1ccc(CN(C)C)o1"
  Bacterial Biotransformation: "Compound NOT metabolized"
- compound: "COC1=C(OC)C(=O)C(CCCCCCCCCCO)=C(C)C1=O"
  Bacterial Biotransformation: "Compound NOT metabolized"
- compound: "CCCCCCOC(=O)/N=C(/N)c1ccc(NCc2nc3cc(C(=O)N(CCC(=O)OCC)c4ccccn4)ccc3n2C)cc1.CS(=O)(=O)O [DABIGATRAN ETEXILATE MESYLATE]"
  Bacterial Biotransformation: "Compound NOT metabolized"
- compound: "Cc1ccc(S(=O)(=O)NC(=O)NN2CC3CCCC3C2)cc1 (stereo not given) [GLICLAZIDE]"
  Bacterial Biotransformation: "Compound NOT metabolized"

---

assay: The drug is tested on Bacteroides fragilis strain: ATCC43859 for biotransformation. The drug concentrations were measured before and after a 12-h incubation by liquid-chromatography-coupled mass spectrometry (LC–MS); settings: 2 µM

- molecule: "CNC(=C[N+](=O)[O-])NCCSCc1csc(CN(C)C)n1 [NIZATIDINE]"
  Bacterial Biotransformation: "Compound NOT metabolized"
- molecule: "CC(CCc1ccccc1)NCC(O)c1ccc(O)c(C(N)=O)c1 (configuration not stated) [LABETALOL]"
  Bacterial Biotransformation: "Compound NOT metabolized"
- molecule: "CCOC(=O)[C@H](CCc1ccccc1)N[C@@H](C)C(=O)N1Cc2ccccc2C[C@H]1C(=O)O"
  Bacterial Biotransformation: "Compound metabolized"
- molecule: "CN1C(C(=O)Nc2ccccn2)=C(O)c2sccc2S1(=O)=O [TENOXICAM]"
  Bacterial Biotransformation: "Compound NOT metabolized"
- molecule: "CN(C(=O)CN(CCO)CC(=O)N(C)C(C)(C)Cc1ccccc1)C(C)(C)Cc1ccccc1 [OXETHAZAINE]"
  Bacterial Biotransformation: "Compound NOT metabolized"
- molecule: "Nc1nc(NC2CC2)c2ncn([C@H]3C=C[C@@H](CO)C3)c2n1.Nc1nc(NC2CC2)c2ncn([C@H]3C=C[C@@H](CO)C3)c2n1.O=S(=O)(O)O [ABACAVIR SULFATE]"
  Bacterial Biotransformation: "Compound NOT metabolized"
- molecule: "N#Cc1ccc2[nH]cc(CCCCN3CCN(c4ccc5oc(C(N)=O)cc5c4)CC3)c2c1 [VILAZODONE]"
  Bacterial Biotransformation: "Compound metabolized"

---

test: The drug is tested on Escherichia coli strain: BW25113 for biotransformation. The drug concentrations were measured before and after a 12-h incubation by liquid-chromatography-coupled mass spectrometry (LC–MS); conditions: 2 µM
outcome.measure: Bacterial Biotransformation

- compound: "COc1cc2nc(N3CCN(C(=O)C4COc5ccccc5O4)CC3)nc(N)c2cc1OC.CS(=O)(=O)O (configuration not stated) [DOXAZOSIN MESYLATE]"
  outcome.measure: "Bacterial Biotransformation"
  experimental.result: "Compound metabolized"
- compound: "CN1CCN(C2=Nc3ccccc3Oc3ccc(Cl)cc32)CC1.O=C(O)CCC(=O)O [LOXAPINE SUCCINATE]"
  outcome.measure: "Bacterial Biotransformation"
  experimental.result: "Compound NOT metabolized"
- compound: "CCCCCOC(=O)Nc1nc(=O)n([C@@H]2O[C@H](C)[C@@H](O)[C@H]2O)cc1F [CAPECITABINE]"
  outcome.measure: "Bacterial Biotransformation"
  experimental.result: "Compound metabolized"
- compound: "COc1ccc([C@@H]2Sc3ccccc3N(CCN(C)C)C(=O)[C@@H]2OC(C)=O)cc1 [DILTIAZEM]"
  outcome.measure: "Bacterial Biotransformation"
  experimental.result: "Compound NOT metabolized"
- compound: "CN1[C@@H]2CC[C@H]1C[C@@H](OC(=O)c1c[nH]c3ccccc13)C2 [TROPISETRON]"
  outcome.measure: "Bacterial Biotransformation"
  experimental.result: "Compound NOT metabolized"
- compound: "COCCCC/C(=N\\OCCN)c1ccc(C(F)(F)F)cc1.O=C(O)/C=C\\C(=O)O [FLUVOXAMINE MALEATE]"
  outcome.measure: "Bacterial Biotransformation"
  experimental.result: "Compound NOT metabolized"
- compound: "COc1c(C)c2c(c(O)c1C/C=C(\\C)CCC(=O)OCCN1CCOCC1)C(=O)OC2 [MYCOPHENOLATE MOFETIL]"
  outcome.measure: "Bacterial Biotransformation"
  experimental.result: "Compound metabolized"

---

assay: The drug is tested on Anaerococcus hydrogenalis strain: DSM7454 for biotransformation. The drug concentrations were measured before and after a 12-h incubation by liquid-chromatography-coupled mass spectrometry (LC–MS); settings: 2 µM

- compound: "O=c1[nH]c2ccccc2n1CCCN1CCC(n2c(=O)[nH]c3cc(Cl)ccc32)CC1"
  Bacterial Biotransformation: "Compound NOT metabolized"
- compound: "CC(NC(C)(C)C)C(=O)c1cccc(Cl)c1 (centres undefined)"
  Bacterial Biotransformation: "Compound NOT metabolized"
- compound: "COc1ccc(C(CN(C)C)C2(O)CCCCC2)cc1 (centres undefined)"
  Bacterial Biotransformation: "Compound NOT metabolized"

---

details: bacteroides intestinalis, 12 h, 2 µM
Description: The drug is tested on Bacteroides intestinalis strain: DSM17393 for biotransformation. The drug concentrations were measured before and after a 12-h incubation by liquid-chromatography-coupled mass spectrometry (LC–MS)

- compound: "CC(=O)Oc1ccc(C(c2ccc(OC(C)=O)cc2)c2ccccn2)cc1"
  Bacterial Biotransformation: "Compound metabolized"
- compound: "COc1cc2nc(N3CCN(C(=O)C4CCCO4)CC3)nc(N)c2cc1OC (configuration not stated)"
  Bacterial Biotransformation: "Compound NOT metabolized"
- compound: "CC(=O)OCC(CCn1cnc2cnc(N)nc21)COC(C)=O"
  Bacterial Biotransformation: "Compound metabolized"
- compound: "N#Cc1ccc(C(c2ccc(C#N)cc2)n2cncn2)cc1"
  Bacterial Biotransformation: "Compound NOT metabolized"
- compound: "c1ccc([C@H]2CN3CCSC3=N2)cc1"
  Bacterial Biotransformation: "Compound metabolized"
- compound: "COc1ccc2[nH]c([S+]([O-])Cc3ncc(C)c(OC)c3C)nc2n1 (configuration not stated)"
  Bacterial Biotransformation: "Compound metabolized"
- compound: "COc1cc2nc(N3CCN(C(=O)C4COc5ccccc5O4)CC3)nc(N)c2cc1OC.CS(=O)(=O)O (configuration not stated) [DOXAZOSIN MESYLATE]"
  Bacterial Biotransformation: "Compound NOT metabolized"
- compound: "CCCCCOC(=O)Nc1nc(=O)n([C@@H]2O[C@H](C)[C@@H](O)[C@H]2O)cc1F"
  Bacterial Biotransformation: "Compound NOT metabolized"
- compound: "Cc1ccc(S(=O)(=O)NC(=O)NN2CCCCCC2)cc1 [TOLAZAMIDE]"
  Bacterial Biotransformation: "Compound NOT metabolized"
- compound: "COc1ccccc1N1CCN(CC(O)COc2cccc3ccccc23)CC1 (configuration not stated)"
  Bacterial Biotransformation: "Compound NOT metabolized"
- compound: "C#C[C@]1(O)CC[C@H]2[C@@H]3CCC4=CC(=O)CC[C@@H]4[C@H]3CC[C@@]21CC"
  Bacterial Biotransformation: "Compound NOT metabolized"
- compound: "CC(C)N(CCC(C(N)=O)(c1ccccc1)c1ccccn1)C(C)C.O=P(O)(O)O (configuration not stated) [DISOPYRAMIDE PHOSPHATE]"
  Bacterial Biotransformation: "Compound NOT metabolized"
- compound: "CN1CCN(C2=Nc3cc(Cl)ccc3Nc3ccccc32)CC1"
  Bacterial Biotransformation: "Compound NOT metabolized"
- compound: "CCOC(=O)[C@H](CCc1ccccc1)N[C@H]1CCc2ccccc2N(CC(=O)O)C1=O"
  Bacterial Biotransformation: "Compound metabolized"
- compound: "Cc1cc2c(cc1S(N)(=O)=O)S(=O)(=O)CCC2"
  Bacterial Biotransformation: "Compound NOT metabolized"
- compound: "O=C(NCc1ccccc1)OCCO [BURAMATE]"
  Bacterial Biotransformation: "Compound NOT metabolized"
- compound: "C#C[C@]1(OC(C)=O)CC[C@H]2[C@@H]3CCC4=C[C@@H](OC(C)=O)CC[C@@H]4[C@H]3CC[C@@]21C [ETHYNODIOL DIACETATE]"
  Bacterial Biotransformation: "Compound NOT metabolized"
- compound: "CN(C)C(=O)Oc1cccc([N+](C)(C)C)c1.[Br-] [NEOSTIGMINE BROMIDE]"
  Bacterial Biotransformation: "Compound NOT metabolized"
- compound: "CN1CCN2c3ccccc3Cc3ccccc3C2C1 (configuration not stated)"
  Bacterial Biotransformation: "Compound NOT metabolized"
- compound: "C[C@H]1O[C@@H](O[C@H]2[C@@H](O)C[C@H](O[C@H]3[C@@H](O)C[C@H](O[C@H]4CC[C@@]5(C)[C@H](CC[C@@H]6[C@@H]5C[C@@H](O)[C@]5(C)[C@@H](C7=CC(=O)OC7)CC[C@]65O)C4)O[C@@H]3C)O[C@@H]2C)C[C@H](O)[C@@H]1O"
  Bacterial Biotransformation: "Compound NOT metabolized"
- compound: "CN/C(=N/CCSCc1nc[nH]c1C)NC#N"
  Bacterial Biotransformation: "Compound NOT metabolized"
- compound: "CC(C)(C)NCC(O)c1cc(Cl)c(N)c(Cl)c1 (configuration not stated)"
  Bacterial Biotransformation: "Compound NOT metabolized"
